Data provenance: ChEMBL document CHEMBL3994565

assay comment: Antiviral activity against Influenza A virus (A/WSN/33(H1N1)) infected in MDCK cells assessed as inhibition of virus-induced cytopathic effect at 100 uM incubated for 40 hrs by CellTiter-Glo assay
Format: functional, Influenza A virus (A/WSN/1933(H1N1))
assay metric: inhibition at 100 µM (%)
Numeric only. Scale: %

Answered cases to consult:
| structure string | readout value |
| --- | --- |
| C=C(C)[C@@H]1CC[C@]2(C(=O)OCCO[C@]3(C(=O)OC)C[C@H](OC(C)=O)[C@@H](NC(C)=O)[C@H]([C@H](OC(C)=O)[C@@H](COC(C)=O)OC(C)=O)O3)CC[C@]3(C)[C@H](CC[C@@H]4[C@@]5(C)CC[C@H](O)C(C)(C)[C@@H]5CC[C@]43C)[C@@H]12 | 86.6 |
| C=C(C)[C@@H]1CC[C@]2(C(=O)NCc3cn([C@]4(C(=O)OC)C[C@H](OC(C)=O)[C@@H](NC(C)=O)[C@H]([C@H](OC(C)=O)[C@@H](COC(C)=O)OC(C)=O)O4)nn3)CC[C@]3(C)[C@H](CC[C@@H]4[C@@]5(C)CC[C@H](O)C(C)(C)[C@@H]5CC[C@]43C)[C@@H]12 | 16 |

We now examine a further molecule.
input: // inhibition at 100 µM lookup, key: `COC(=O)[C@@]1(n2cc(CNC(=O)[C@]34CCC(C)(C)C[C@@H]3C3=CC[C@@H]5[C@@]6(C)CC[C@H](O)C(C)(C)[C@@H]6CC[C@@]5(C)[C@]3(C)C[C@H]4O)nn2)C[C@H](OC(C)=O)[C@@H](NC(C)=O)[C@H]([C@H](OC(C)=O)[C@@H](COC(C)=O)OC(C)=O)O1`
output: -5.2

---

The molecules listed here are annotated with their viability at 40 h, 100 µM.
assay comment: Cytotoxicity against MDCK cells assessed as cell viability at 100 uM after 40 hrs by CellTiter-Glo assay relative to control
Type: cell-based, Canis lupus familiaris
condition label: dog, read-out: Activity
A complete answer gives the number and then names the unit.

Answered cases to consult:
| structure string | viability at 40 h, 100 µM |
| --- | --- |
| COC(=O)[C@@]1(n2cc(CNC(=O)[C@]34CCC(C)(C)C[C@@H]3C3=CC[C@@H]5[C@@]6(C)CC[C@H](O)C(C)(C)[C@@H]6CC[C@@]5(C)[C@]3(C)C[C@H]4O)nn2)C[C@H](OC(C)=O)[C@@H](NC(C)=O)[C@H]([C@H](OC(C)=O)[C@@H](COC(C)=O)OC(C)=O)O1 | 103% |
| COC(=O)[C@@]1(OCCOC(=O)[C@]23CC[C@@H](C)[C@H](C)[C@@H]2C2=CC[C@@H]4[C@@]5(C)CC[C@H](O)C(C)(C)[C@@H]5CC[C@@]4(C)[C@]2(C)CC3)C[C@H](OC(C)=O)[C@@H](NC(C)=O)[C@H]([C@H](OC(C)=O)[C@@H](COC(C)=O)OC(C)=O)O1 | 0.2% |

We now examine a further molecule.
input: // viability at 40 h, 100 µM lookup, key: `COC(=O)[C@@]1(OCCn2cc(CNC(=O)[C@]34CCC(C)(C)C[C@@H]3C3=CC[C@@H]5[C@@]6(C)CC[C@H](O)C(C)(C)[C@@H]6CC[C@@]5(C)[C@]3(C)C[C@H]4O)nn2)C[C@H](OC(C)=O)[C@@H](NC(C)=O)[C@H]([C@H](OC(C)=O)[C@@H](COC(C)=O)OC(C)=O)O1`
output: 105%

---

assay comment: Cytotoxicity against MDCK cells assessed as cell viability at 100 uM after 40 hrs by CellTiter-Glo assay relative to control
Assay type: cell-based, Canis lupus familiaris
condition label: dog, read-out: Activity
Field: label. Allowed values: satisfied (viability at 40 h, 100 µM < 40%) or not satisfied (viability at 40 h, 100 µM >= 40%).

| structure string | assigned label |
| --- | --- |
| COC(=O)[C@@]1(OCCOC(=O)[C@]23CCC(C)(C)C[C@@H]2C2=CC[C@@H]4[C@@]5(C)CC[C@H](O)C(C)(C)[C@@H]5CC[C@@]4(C)[C@]2(C)C[C@H]3O)C[C@H](O)[C@@H](NC(C)=O)[C@H]([C@H](O)[C@H](O)CO)O1 | not satisfied |
| COC(=O)[C@@]1(OCCn2cc(CNC(=O)[C@]34CC[C@@H](C)[C@H](C)[C@@H]3C3=CC[C@@H]5[C@@]6(C)CC[C@H](O)C(C)(C)[C@@H]6CC[C@@]5(C)[C@]3(C)CC4)nn2)C[C@H](O)[C@@H](NC(C)=O)[C@H]([C@H](O)[C@H](O)CO)O1 | satisfied |
| C=C(C)[C@@H]1CC[C@]2(C(=O)O)CC[C@]3(C)[C@H](CC[C@@H]4[C@@]5(C)CC[C@H](O)C(C)(C)[C@@H]5CC[C@]43C)[C@@H]12 | satisfied |
| C=C(C)[C@@H]1CC[C@]2(C(=O)NCc3cn(CCO[C@]4(C(=O)OC)C[C@H](OC(C)=O)[C@@H](NC(C)=O)[C@H]([C@H](OC(C)=O)[C@@H](COC(C)=O)OC(C)=O)O4)nn3)CC[C@]3(C)[C@H](CC[C@@H]4[C@@]5(C)CC[C@H](O)C(C)(C)[C@@H]5CC[C@]43C)[C@@H]12 | not satisfied |
| COC(=O)[C@@]1(n2cc(CNC(=O)[C@]34CC[C@@H](C)[C@H](C)[C@@H]3C3=CC[C@@H]5[C@@]6(C)CC[C@H](O)C(C)(C)[C@@H]6CC[C@@]5(C)[C@]3(C)CC4)nn2)C[C@H](O)[C@@H](NC(C)=O)[C@H]([C@H](O)[C@H](O)CO)O1 | satisfied |
| COC(=O)[C@@]1(N=[N+]=[N-])C[C@H](OC(C)=O)[C@@H](NC(C)=O)[C@H]([C@H](OC(C)=O)[C@@H](COC(C)=O)OC(C)=O)O1 | not satisfied |
| C=C(C)[C@@H]1CC[C@]2(C(=O)NCc3cn(CCO[C@]4(C(=O)OC)C[C@H](O)[C@@H](NC(C)=O)[C@H]([C@H](O)[C@H](O)CO)O4)nn3)CC[C@]3(C)[C@H](CC[C@@H]4[C@@]5(C)CC[C@H](O)C(C)(C)[C@@H]5CC[C@]43C)[C@@H]12 | not satisfied |

Continue with the next compound.
input: Does `CC1(C)CC[C@]2(C(=O)O)CC[C@]3(C)C(=CC[C@@H]4[C@@]5(C)CC[C@H](O)C(C)(C)[C@@H]5CC[C@]43C)[C@@H]2C1` have viability at 40 h, 100 µM strictly under 40%?
output: not satisfied

---

assay comment: Selectivity index, ratio of CC50 against uninfected MDCK cells to IC50 against Influenza A virus (A/WSN/33(H1N1)) infected MDCK cells
Type: toxicity, cell-based
condition label: dog; read-out: Ratio CC50/IC50
The compounds listed here are annotated with their selectivity ratio.

Answered cases to consult:
| structure string | selectivity ratio |
| --- | --- |
| COc1cc(/C=C/C(=O)CC(=O)/C=C/c2ccc(O)c(OC)c2)ccc1O | 7.2 |
| C=C(C)[C@@H]1CC[C@]2(C(=O)OCCO[C@]3(C(=O)OC)C[C@H](OC(C)=O)[C@@H](NC(C)=O)[C@H]([C@H](OC(C)=O)[C@@H](COC(C)=O)OC(C)=O)O3)CC[C@]3(C)[C@H](CC[C@@H]4[C@@]5(C)CC[C@H](O)C(C)(C)[C@@H]5CC[C@]43C)[C@@H]12 | 2.9 |
| C=C(C)[C@@H]1CC[C@]2(C(=O)NCc3cn(CCO[C@]4(C(=O)OC)C[C@H](OC(C)=O)[C@@H](NC(C)=O)[C@H]([C@H](OC(C)=O)[C@@H](COC(C)=O)OC(C)=O)O4)nn3)CC[C@]3(C)[C@H](CC[C@@H]4[C@@]5(C)CC[C@H](O)C(C)(C)[C@@H]5CC[C@]43C)[C@@H]12 | > 6.3 |
| COC(=O)[C@@]1(OCCn2cc(CNC(=O)[C@]34CCC(C)(C)C[C@@H]3C3=CC[C@@H]5[C@@]6(C)CC[C@H](O)C(C)(C)[C@@H]6CC[C@@]5(C)[C@]3(C)CC4)nn2)C[C@H](OC(C)=O)[C@@H](NC(C)=O)[C@H]([C@H](OC(C)=O)[C@@H](COC(C)=O)OC(C)=O)O1 | > 5.2 |
| CCOC(=O)C1=C[C@@H](OC(CC)CC)[C@H](NC(C)=O)[C@@H](N)C1 | > 10.8 |

We now examine a further compound.
input: // selectivity ratio lookup, key: `C=C(C)[C@@H]1CC[C@]2(C(=O)OCCO[C@]3(C(=O)OC)C[C@H](O)[C@@H](NC(C)=O)[C@H]([C@H](O)[C@H](O)CO)O3)CC[C@]3(C)[C@H](CC[C@@H]4[C@@]5(C)CC[C@H](O)C(C)(C)[C@@H]5CC[C@]43C)[C@@H]12`
output: > 12.1
